What IC50 was measured for each of the following?
# target-of-assay: PDE10 (UniProt Q9Y233)
# test: PDE10 enzyme inhibition, IMAP TR-FRET assay (MPDE10A7 Enzyme Activity and Inhibition)
# Assay type: biochemical
# assay-setup: IC50 class against PDE10; read-out: IC50

Solved cases (3 shown):
COc1ccccc1-c1nccnc1Oc1ccc(C(=O)c2nc3ccccc3[nH]2)cc1 | 25 to 100 nM
CC1(C)C=C(c2nccnc2Oc2ccc(C(=O)c3nc4ccccc4[nH]3)cc2)C(=O)CC1 | 25 to 100 nM
Fc1cc(Oc2nccnc2C2CCOCC2)ccc1Nc1nc2ccccc2s1 | < 25 nM

Report IC50 for every entry below.
1. COC1CCN(c2nccnc2Oc2ccc(Nc3nc4ccccc4s3)cc2)CC1
2. O=C(c1ccc(Oc2nccnc2C2=CCOCC2)cc1)c1nc2ncccc2[nH]1
3. CC(=O)OCC(=O)N1CCC(c2nccnc2Oc2ccc(C(=O)c3nc4ccccc4[nH]3)cc2)CC1
4. Cc1cc(-c2nccnc2Oc2ccc(C(=O)c3nc4ccccc4[nH]3)cc2)ccn1

OUT:
["< 25 nM", "25 to 100 nM", "< 25 nM", "< 25 nM"]

IN: Would you mind telling me what IC50 value was observed for CC(=O)N1CCCC(c2nccnc2Oc2ccc(C(=O)c3nc4ccccc4[nH]3)cc2)C1 (racemic) [Example 251, 2,2,2-trifluoroacetate] ?
OUT: < 25 nM

---

# target-of-assay: PDE10 (UniProt Q9Y233)
# test: PDE10 enzyme inhibition, IMAP TR-FRET assay (MPDE10A7 Enzyme Activity and Inhibition)
# Assay type: biochemical
# assay-setup: PDE10 enzyme inhibition; average IC50 data for each compound; read-out: Average IC50
Hi there, I'd appreciate the recorded log10(IC50) for every entry that follows.
The figures below represent log10 of IC50, where IC50 is stated in nM.

Use these answered entries as a reference point.
CC(C)N1CCN(c2nccnc2Oc2ccc(Nc3nc4ccccc4s3)cc2)CC1=O [drawing 766] | 1.10
COc1cncc(-c2nccnc2Oc2ccc(C(=O)c3nc4ccccc4[nH]3)cc2)c1 [drawing 917] | 0.73
CC(=O)N1CCC(c2nccnc2Oc2ccc(C(=O)c3nc4ccccc4[nH]3)cc2)CC1 [drawing 889] | -0.74
COc1cccc(-c2nccnc2Oc2ccc(C(=O)c3nc4ccccc4[nH]3)cc2)c1 [drawing 759] | 1.56
COc1ncccc1-c1nccnc1Oc1ccc(Nc2nc3ccccc3s2)cc1 [drawing 886] | 0.56

Please state, for each entry, its recorded log10(IC50).
1. CN1CCC2(CCN(c3nccnc3Oc3ccc(C(=O)c4nc5ccccc5[nH]4)cc3)CC2)C1=O
2. C[C@]1(O)CC[C@H](c2nccnc2Oc2ccc(C(=O)c3nc4ccccc4[nH]3)cc2)CC1 [drawing 922]
3. C[C@@H](F)C(=O)N1CCC(c2nccnc2Oc2ccc(Nc3nc4ccccc4s3)cc2)CC1 [drawing 978]
4. O=C(c1ccc(Oc2nccnc2OCc2ccccn2)cc1)c1nc2ccccc2[nH]1 [drawing 849]
5. CC(=O)N1CCC(c2nccnc2Oc2ccc(Nc3nc4ccccc4s3)cc2)CC1 [drawing 893]
6. FC1(c2nccnc2Oc2ccc(Nc3nc4ccccc4s3)cc2)CCOCC1 [drawing 927]

OUT:
[1.11, -0.13, -1.51, 3.23, -1.23, 1.09]

---

# target-of-assay: UniProt Q9Y233
# test: PDE10 enzyme inhibition, IMAP TR-FRET assay (MPDE10A7 Enzyme Activity and Inhibition)
# Type: biochemical
# assay-setup: IC50 class against PDE10; read-out: IC50
Can you tell me IC50 for the items I'm about to list?

Examples with their reported IC50 follow.
COc1cncc(-c2nccnc2Oc2ccc(Nc3nc4ccccc4s3)cc2)c1 [Example 156] | 25 to 100 nM
Fc1ccc2nc(Nc3ccc(Oc4nccnc4Cl)cc3)sc2c1 [Example 62] | 1000 to 5000 nM
Fc1cc(Oc2cnccn2)ccc1Nc1nc2ccccc2s1 [Example 216] | 1000 to 5000 nM
CN(C)CC(=O)N1CCC(c2nccnc2Oc2ccc(C(=O)c3nc4ccccc4[nH]3)cc2)CC1 [Example 245] | < 25 nM

Pending compound:
IN: For O=C(c1ccc(Oc2nccnc2C2CCOCC2)cc1)c1nc2ccc(F)cc2[nH]1 [Example 183] , what is its reported IC50?
OUT: < 25 nM
